src = patent US20190248902A1

Quick reference: % Change Compared to pH 7.4 + Calcium of the listed items.
Target: T1, recombinant, soluble human ASGR-1 (human, UniProt P07306 62-291)
T1 construct: biotinylated in the binning assay; also called soluble huASGR-1; Soluble ASGR-1 (Amgen)
T1 sequence: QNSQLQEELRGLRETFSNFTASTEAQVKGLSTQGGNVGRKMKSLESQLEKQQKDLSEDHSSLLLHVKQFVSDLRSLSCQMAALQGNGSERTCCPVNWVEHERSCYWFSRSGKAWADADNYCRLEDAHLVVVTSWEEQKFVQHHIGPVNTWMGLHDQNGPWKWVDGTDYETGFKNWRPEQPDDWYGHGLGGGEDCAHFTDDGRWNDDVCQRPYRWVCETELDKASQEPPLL
Assay: Octet BLI dissociation, pH 7.4 minus calcium
Report only the number, with the unit % understood.

Here's what some known entries look like.
49F10 (antibody, V domains shown, hybridoma mAb) VH: QVQLVQSGAEVKKPGASVKVSCKASGYTFTGYHMHWVRQAPGQGLEWMGWINPNNNATNYAQNFQGRVTLTRDTSISTAYMELSRLRSDDTAVYYCARDGTSSFDFWGQGTLVTVSS VL: DIQMTQSPSSVSASVGDRVTITCRASQGISRWLAWYQQKPGKAPKVLIYAASTLQSGVPSRFSGSGSGTDFTLTISSLQPEDFATYYCQQANSFPFTFGPGTKVDIK :: 4
65C12 (antibody, V domains shown, hybridoma mAb) VH: EVQLVESGGGLVKPGGSLRLSCAASGFTFRSFSLNWVRQAPGKGLEWVSSISSSSSYIYYADSVKGRFTISRDNAKNSLYLQMNSLRAEDTAVYYCARDAYSHYWGQGTLVTVSS VL: EIVMTQSPATLSVFPGEGATLSCRASQSVSINLAWYQQKPGQAPRLLIYGASTRATGIPARFNASGSGTEFTLSISSLQSENFAVYYCQQYNTWPLTFGGGTKVEIK :: 13
74C8 (antibody, V domains shown, hybridoma mAb) VH: QVQLVESGGGVVQPGRSLRLSCAASGFTFSSYGMHWVRQAPGKGLEWVAVIWYDGSNKNYADSVKGRFTISRDNSKNTLYLQMNSLRAEDTAVYYCARDGSYGYDGLDYWGQGTLVTVSS VL: DIQMTQSPSSLSASVGDRVTITCRASQGIGKYLAWFQQKPGKAPKSLIYTTSNLQSGAPSKFSGSGSGTDFTLTISSLQYEDFATYYCQQYSNYPLTFGGGTKVEIN :: 1

Task item: Indicate the recorded % Change Compared to pH 7.4 + Calcium value for this binder: 190C11 (antibody, V domains shown, hybridoma mAb) VH: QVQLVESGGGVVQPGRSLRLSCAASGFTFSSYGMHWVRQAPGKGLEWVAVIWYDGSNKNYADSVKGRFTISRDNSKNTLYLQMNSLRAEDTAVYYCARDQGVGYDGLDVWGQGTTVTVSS VL: DIQMTQSPSSLSASVGDRVTITCRTSQGIGNYLAWFQQKPGKAPKSLLYKTSSLQSGVPSKFSGSGSGTDFTLTISSLQPEDFATYYCQQYMTYPLTFGGGTKVEIK
Reply: -1
